Hello, the source for this data is ChEMBL document CHEMBL4828744, in case you need it.

test.summary: Bioavailability in Sprague-Dawley rat at 5 mg/kg, ig measured for 24 hrs by LC-MS/MS analysis
Assay type: ADME, organism-based
protocol.conditions: in vivo, po
Reported bioavailability values for a set of compounds

[
  {
    "smiles.text": "CN1CCC(=C(F)c2cccc(NC(=O)c3ccc(Cl)cc3)n2)CC1",
    "bioavailability [%]": 39
  },
  {
    "smiles.text": "CN1CCC(=C(F)c2cccc(NC(=O)c3ccc(F)cc3)n2)CC1",
    "bioavailability [%]": 32.5
  },
  {
    "smiles.text": "CN1CCC(=C(F)c2cccc(NC(=O)c3c(F)cc(F)cc3F)n2)CC1",
    "bioavailability [%]": 64
  },
  {
    "smiles.text": "CN1CCC(=C(F)c2cccc(NC(=O)c3ccc(F)cc3F)n2)CC1",
    "bioavailability [%]": 12.9
  },
  {
    "smiles.text": "CN1CCC(=C(F)c2cccc(NC(=O)c3ccc(F)cn3)n2)CC1",
    "bioavailability [%]": 23.7
  },
  {
    "smiles.text": "CN1CCC(=C(F)c2cccc(NC(=O)c3ccc(Cl)cc3F)n2)CC1",
    "bioavailability [%]": 26.2
  },
  {
    "smiles.text": "CN1CCC(C(=O)c2cccc(NC(=O)c3c(F)cc(F)cc3F)n2)CC1",
    "bioavailability [%]": 63.2
  }
]

====

# key: entry, value: AUC(0-t) at 24 h
test.summary: AUC(0 to t) in Sprague-Dawley rat at 5 mg/kg, ig measured for 24 hrs by LC-MS/MS analysis
Type: ADME, organism-based
Parameters: time 24 hrs, dose 5 mg/kg
protocol.conditions: in vivo, po
result.type: AUC(0-t) at 24 h

[
  {
    "smiles.text": "CN1CCC(=C(F)c2cccc(NC(=O)c3c(F)cc(F)cc3F)n2)CC1",
    "test.value": "404 ng·h/mL"
  },
  {
    "smiles.text": "CN1CCC(=C(F)c2cccc(NC(=O)c3ccc(F)cc3F)n2)CC1",
    "test.value": "44.6 ng·h/mL"
  },
  {
    "smiles.text": "CN1CCC(=C(F)c2cccc(NC(=O)c3ccc(F)cc3)n2)CC1",
    "test.value": "157 ng·h/mL"
  },
  {
    "smiles.text": "CN1CCC(C(=O)c2cccc(NC(=O)c3c(F)cc(F)cc3F)n2)CC1",
    "test.value": "386 ng·h/mL"
  }
]
